- measurementDescription: Cytotoxicity against NQO1-deficient chinese hamster V79 cells assessed as reduction in cell viability after 72 hrs by MTT assay
- Format: toxicity, cell-based, Cricetulus griseus
- settings: v79
readoutKind: pIC50
One number for each entry, as −log10 of the molar value.

Field: pIC50. Fill in for each record below.
1. CC1(C)OC2=C(C(=O)C(=O)c3ccccc32)C1N=[N+]=[N-] (centres undefined)
2. CC1(C)OC2=C(C(=O)C(=O)c3ccccc32)[C@@H](n2cc(C[Se]c3ccccc3)nn2)[C@@H]1Br
3. C#Cc1cccc(NC2C3=C(OC2(C)C)C(=O)c2ccccc2C3=O)c1 (centres undefined)

Found:
1. 5.49
2. 5.66
3. 5.22

---

- measurementDescription: Cytotoxicity against NQO1-deficient chinese hamster V79 cells assessed as reduction in cell viability after 72 hrs by MTT assay
- Format: toxicity, cell-based, Cricetulus griseus
- settings: v79
I'd appreciate it if you marked entries yes (1) when IC50 is lower than 4 µM and no (0) when it is not.

Example results:
>>> labelvalue("O=C1C2=C(OC(Cn3cc(C[Se]c4ccccc4)nn3)C2)C(=O)c2ccccc21 (centres undefined)")
"yes (1)"
>>> labelvalue("O=C1C2=C(C(=O)c3ccccc31)[C@H](c1ccccc1)[C@@H](n1cc(C[Se]c3ccccc3)nn1)CO2")
"no (0)"
>>> labelvalue("O=C1C(Cl)=C(NCc2cn(C[Se]c3ccccc3)nn2)C(=O)c2ccccc21")
"yes (1)"
>>> labelvalue("[N-]=[N+]=NC1=CC(=O)c2ccccc2C1=O")
"no (0)"
>>> labelvalue("CC1(C)CC(N=[N+]=[N-])C2=C(O1)C(=O)c1ccccc1C2=O (centres undefined)")
"yes (1)"

Lookup: Problem: For the compound [N-]=[N+]=NCC1CC2=C(O1)C(=O)c1ccccc1C2=O (centres undefined) , is IC50 under 4 µM?
Found: yes (1)

Lookup: Problem: For the compound O=C1C=C(n2cc(C[Se]c3ccccc3)nn2)C(=O)c2ccccc21 , is IC50 under 4 µM?
Found: no (0)

Lookup: Problem: For the compound CC1(C)OC2=C(C(=O)c3ccccc3C2=O)C1Nc1cccc(-c2cn(C[Se]c3ccccc3)nn2)c1 (centres undefined) , is IC50 under 4 µM?
Found: yes (1)

---

- Tested on: PC-3
- measurementDescription: Selectivity index, ratio of IC50 for NQO1-deficient human PBMC to IC50 for human PC3 cells overexpressing NQO1
readoutKind: Ratio IC50
Answers are plain numbers.

Here's what some known entries look like.
>>> value("[N-]=[N+]=NCC1CC2=C(O1)c1ccccc1C(=O)C2=O (centres undefined)")
3.5
>>> value("CC1(C)OC2=C(C(=O)C(=O)c3ccccc32)C(N=[N+]=[N-])[C@@H]1Br (some centres undefined)")
2.1

Field: Ratio IC50. Fill in for each record below.
1. CC1(C)OC2=C(C(=O)C(=O)c3ccccc32)C1Nc1cccc(-c2cn(C[Se]c3ccccc3)nn2)c1 (centres undefined)
2. CC1(C)OC2=C(C(=O)C(=O)c3ccccc32)[C@@H](n2cc(C[Se]c3ccccc3)nn2)[C@@H]1Br

Found:
[3.6, 0.9]

---

- measurementDescription: Cytotoxicity against NQO1-deficient human PBMC assessed as reduction in cell viability after 72 hrs by MTT assay
- Assay type: toxicity, cell-based
- settings: pbmc
I'd appreciate it if you marked entries Criterion met when IC50 is lower than 3 µM and Criterion not met when it is not.

Example results:
>>> labelvalue("O=C1C=C(NCc2cn(C[Se]c3ccccc3)nn2)C(=O)c2ccccc21")
"Criterion not met"
>>> labelvalue("[N-]=[N+]=NCC1CC2=C(O1)C(=O)c1ccccc1C2=O (stereo not given)")
"Criterion not met"
>>> labelvalue("CC1(C)OC2=C(C(=O)c3ccccc3C2=O)C1n1cc(C[Se]c2ccccc2)nn1 (stereo not given)")
"Criterion not met"

Lookup: Problem: For the compound CC1(C)OC2=C(C(=O)C(=O)c3ccccc32)C1Nc1cccc(-c2cn(C[Se]c3ccccc3)nn2)c1 (stereo not given) , is IC50 under 3 µM?
Found: Criterion met

Lookup: Problem: For the compound C#Cc1cccc(NC2C3=C(OC2(C)C)C(=O)c2ccccc2C3=O)c1 (stereo not given) , is IC50 under 3 µM?
Found: Criterion not met

---

- System: PC-3
- measurementDescription: Selectivity index, ratio of IC50 for NQO1-deficient human PBMC to IC50 for human PC3 cells overexpressing NQO1
I'd appreciate it if you marked entries MET when Ratio IC50 is lower than 2 and NOT MET when it is not.

Example results:
>>> labelvalue("C#Cc1cccc(NC2C3=C(OC2(C)C)c2ccccc2C(=O)C3=O)c1 (stereo not given)")
"MET"
>>> labelvalue("[N-]=[N+]=NCC1CC2=C(O1)C(=O)c1ccccc1C2=O (stereo not given)")
"NOT MET"
>>> labelvalue("O=C1C(=O)c2ccccc2C2=C1CC(Cn1cc(C[Se]c3ccccc3)nn1)O2 (stereo not given)")
"NOT MET"

We next turn to a different compound, shown below.
Lookup: Problem: For the compound CC1(C)OC2=C(C(=O)c3ccccc3C2=O)C1Nc1cccc(-c2cn(C[Se]c3ccccc3)nn2)c1 (stereo not given) , is Ratio IC50 under 2?
Found: MET

---

- measurementDescription: Cytotoxicity against NQO1-deficient chinese hamster V79 cells assessed as reduction in cell viability after 72 hrs by MTT assay
- Assay type: toxicity, cell-based, Cricetulus griseus
- settings: Chinese hamster, NQO1-deficient V79 cells
readoutKind: IC50 at 72 h (nM)
Numbers only, in nM.

Lookup: Note IC50 at 72 h for the compound shown: COc1cccc2c1C(=O)c1c(O)c3c(c(O)c1C2=O)C[C@@](O)(C(=O)CO)C[C@@H]3O[C@H]1C[C@H](N)[C@H](O)[C@H](C)O1 [DOXORUBICIN]
Found: 280

---

- Organism: Mus musculus
- measurementDescription: Cytotoxicity against NQO1-deficient mouse L929 cells assessed as reduction in cell viability after 72 hrs by MTT assay
- Format: toxicity, cell-based
- settings: l929
Would you kindly list pIC50 for each of these molecules?
Give bare numbers, as −log10 of the molar value.

Field: pIC50. Fill in for each record below.
1. CC1(C)OC2=C(C(=O)c3ccccc3C2=O)C1n1cc(C[Se]c2ccccc2)nn1 (stereo not given)
2. CC1(C)OC2=C(C(=O)C(=O)c3ccccc32)C(N=[N+]=[N-])[C@@H]1Br (stereo not given in full)
3. CC1(C)OC2=C(C(=O)C(=O)c3ccccc32)C1n1cc(C[Se]c2ccccc2)nn1 (stereo not given)
4. [N-]=[N+]=NC1=CC(=O)c2ccccc2C1=O
5. O=C1C=C(NCc2cn(C[Se]c3ccccc3)nn2)C(=O)c2ccccc21
6. CC1(C)OC2=C(C(=O)c3ccccc3C2=O)C1Nc1cccc(-c2cn(C[Se]c3ccccc3)nn2)c1 (stereo not given)
7. CC1(C)OC2=C(C(=O)C(=O)c3ccccc32)C1Nc1cccc(-c2cn(C[Se]c3ccccc3)nn2)c1 (stereo not given)

Found:
[5.42, 5.69, 5.64, 5.29, 5.42, 5.47, 6.03]

Field: pIC50. Fill in for each record below.
1. [N-]=[N+]=NCC1CC2=C(O1)c1ccccc1C(=O)C2=O (stereo not given)
2. O=C1C(Br)=C(NCc2cn(C[Se]c3ccccc3)nn2)C(=O)c2ccccc21
3. CC1(C)CC(N=[N+]=[N-])C2=C(O1)C(=O)c1ccccc1C2=O (stereo not given)

Found:
5.97
5.48
5.38

Field: pIC50. Fill in for each record below.
1. O=C1C2=C(OC(Cn3cc(C[Se]c4ccccc4)nn3)C2)C(=O)c2ccccc21 (stereo not given)
2. CC1(C)OC2=C(C(=O)C(=O)c3ccccc32)C1N=[N+]=[N-] (stereo not given)
3. [N-]=[N+]=NCC1CC2=C(O1)C(=O)c1ccccc1C2=O (stereo not given)
4. O=C1C2=C(C(=O)c3ccccc31)[C@H](c1ccccc1)[C@@H](n1cc(C[Se]c3ccccc3)nn1)CO2
5. CC1(C)CC(Nc2cccc(-c3cn(C[Se]c4ccccc4)nn3)c2)C2=C(O1)C(=O)c1ccccc1C2=O (stereo not given)
6. O=C1C(=O)c2ccccc2C2=C1CC(Cn1cc(C[Se]c3ccccc3)nn1)O2 (stereo not given)
7. CC1(C)OC2=C(C(=O)C(=O)c3ccccc32)[C@@H](n2cc(C[Se]c3ccccc3)nn2)[C@@H]1Br
8. C#Cc1cccc(NC2C3=C(OC2(C)C)c2ccccc2C(=O)C3=O)c1 (stereo not given)

Found:
[5.67, 5.57, 5.67, 5.15, 5.48, 6.21, 5.76, 5.60]

Lookup: Note pIC50 for the molecule shown: CC1(C)OC2=C(C(=O)c3ccccc3C2=O)C1N=[N+]=[N-] (stereo not given)
Found: 5.43

---

- measurementDescription: Cytotoxicity against NQO1-deficient human PBMC assessed as reduction in cell viability after 72 hrs by MTT assay
- Format: toxicity, cell-based
- settings: pbmc
readoutKind: pIC50
Answers are plain numbers, as −log10 of the molar value.

>>> value("[N-]=[N+]=NCC1CC2=C(O1)c1ccccc1C(=O)C2=O (configuration not stated)")
5.74
>>> value("O=C1C(Br)=C(NCc2cn(C[Se]c3ccccc3)nn2)C(=O)c2ccccc21")
5.41
>>> value("[N-]=[N+]=NC1=CC(=O)c2ccccc2C1=O")
5.06
>>> value("CC1(C)OC2=C(C(=O)c3ccccc3C2=O)C1Nc1cccc(-c2cn(C[Se]c3ccccc3)nn2)c1 (configuration not stated)")
5.48
>>> value("O=C1C(=O)c2ccccc2C2=C1CC(Cn1cc(C[Se]c3ccccc3)nn1)O2 (configuration not stated)")
5.88

Field: pIC50. Fill in for each record below.
1. O=C1C2=C(OC(Cn3cc(C[Se]c4ccccc4)nn3)C2)C(=O)c2ccccc21 (configuration not stated)
2. O=C1C(Cl)=C(NCc2cn(C[Se]c3ccccc3)nn2)C(=O)c2ccccc21
3. CC1(C)CC(N=[N+]=[N-])C2=C(O1)C(=O)c1ccccc1C2=O (configuration not stated)

Found:
1: 5.55; 2: 5.20; 3: 5.21

Field: pIC50. Fill in for each record below.
1. CC1(C)OC2=C(C(=O)C(=O)c3ccccc32)C1n1cc(C[Se]c2ccccc2)nn1 (configuration not stated)
2. CC1(C)CC(n2cc(C[Se]c3ccccc3)nn2)C2=C(O1)C(=O)c1ccccc1C2=O (configuration not stated)

Found:
1. 5.75
2. 5.35
